Reference for the values: patent US8741951B2

test system: LNCaP-AR cells; test: SRB in vitro chemosensitivity assay, LNCaP-AR; assay type: cell-based; settings: LNCaP-AR, 144 h, up to 20 μM
readout kind: cytotoxic effect (cytostatic / cytocidal), in words

N#Cc1ccc(NC(=O)[C@](O)(Cc2cccc3ccccc23)CS(=O)(=O)c2ccc(F)cc2)cc1C(F)(F)F [(R)-XXIII-10]
cell killing activity
N#Cc1ccc(NC(=O)[C@](O)(Cc2ccc(C(F)(F)F)cc2)CS(=O)(=O)c2ccc(F)cc2)cc1C(F)(F)F [(R)-XXIII-5]
cell killing activity

###

tested on: LNCaP-AR cells; experiment: SRB in vitro chemosensitivity assay, LNCaP-AR; format: cell-based; conditions: LNCaP-AR cells, 144 h exposure, up to 20 μM
readout kind: LC50

N#Cc1ccc(NC(=O)[C@@](O)(CS(=O)(=O)c2ccc(F)cc2)c2ccccc2)cc1C(F)(F)F [(R)-XXIII-8]
n.r.
N#Cc1ccc(OCC(O)(Cc2ccccc2)C(=O)Nc2ccc(C#N)c(C(F)(F)F)c2)cc1 (stereo in doubt) [(R)-XXIV-9]
n.r.
N#Cc1ccc(NC(=O)[C@](O)(Cc2ccc(C(F)(F)F)cc2)CS(=O)(=O)c2ccc(F)cc2)cc1C(F)(F)F [(R)-XXIII-5]
n.r.

###

Test system: LNCaP-AR cells
Assay: SRB in vitro chemosensitivity assay, LNCaP-AR
Format: cell-based
Conditions: LNCaP-AR, 144 h, up to 20 μM
Description: The cell lines were maintained as a monolayer at 37° C. and subcultured weekly. Culture medium was composed of RPMI 1640 supplemented with 10% fetal calf serum and 1% glutamine (Mascia Brunelli s.p.a., Milan, Italy). […] Sulforhodamine B (SRB) assay was used according to the method by Skehan et al. (JNCI, 1990). Briefly, cells were collected by trypsinization, counted and plated at a density of 5,000 cells/well in 96-well flat-bottomed microtiter plates (100 μl of cell suspension/well). […]
readout kind: cytotoxic effect (cytostatic / cytocidal), in words

N#Cc1ccc(NC(=O)[C@](O)(Cc2cc(F)cc(F)c2)CS(=O)(=O)c2ccc(F)cc2)cc1C(F)(F)F [(R)-XXIII-9]
cell killing activity
N#Cc1ccc(OCC(O)(Cc2ccccc2)C(=O)Nc2ccc(C#N)c(C(F)(F)F)c2)cc1 (stereo in doubt) [(R)-XXIV-9]
cell killing activity

###

tested on: LNCaP-AR cells; test: SRB in vitro chemosensitivity assay, LNCaP-AR; format: cell-based; conditions: LNCaP-AR cells, 144 h exposure, up to 20 μM
readout kind: LC50

N#Cc1ccc(NC(=O)[C@](O)(Cc2ccccc2)CS(=O)(=O)c2ccc(F)cc2)cc1C(F)(F)F [(R)-XXIII-3]
n.r.
N#Cc1ccc(NC(=O)[C@](O)(Cc2cc(F)cc(F)c2)CS(=O)(=O)c2ccc(F)cc2)cc1C(F)(F)F [(R)-XXIII-9]
n.r.
C[C@](O)(CS(=O)(=O)c1ccc(F)cc1)C(=O)Nc1ccc(C#N)c(C(F)(F)F)c1 [(R)-Bicalutamide, reference compound]
n.r.
N#Cc1ccc(NC(=O)[C@](O)(Cc2ccc(F)cc2)CS(=O)(=O)c2ccc(F)cc2)cc1C(F)(F)F [(R)-XXIII-4]
n.r.

###

system: LNCaP cells; assay: SRB in vitro chemosensitivity assay, LNCaP; format: cell-based; details: read-out: LC50; LNCaP cells, 144 h exposure, up to 20 μM
readout kind: LC50
Please don't drop the unit; write it after the number.

Field: example entries. Status: answers known.
N#Cc1ccc(C[C@](O)(CS(=O)(=O)c2ccc(F)cc2)C(=O)Nc2ccc(C#N)c(C(F)(F)F)c2)cc1 [(R)-XXIII-7]
20 µM
N#Cc1ccc(NC(=O)[C@](O)(Cc2cc(F)cc(F)c2)CS(=O)(=O)c2ccc(F)cc2)cc1C(F)(F)F [(R)-XXIII-9]
19.7 µM
N#Cc1ccc(NC(=O)[C@](O)(Cc2cccc3ccccc23)CS(=O)(=O)c2ccc(F)cc2)cc1C(F)(F)F [(R)-XXIII-10]
19.7 µM
N#Cc1ccc(OCC(O)(Cc2ccccc2)C(=O)Nc2ccc(C#N)c(C(F)(F)F)c2)cc1 (stereo in doubt) [(R)-XXIV-9]
17.4 µM

With those in mind, consider the next compound.
Need LC50 of N#Cc1ccc(NC(=O)[C@](O)(Cc2ccc(C(F)(F)F)cc2)CS(=O)(=O)c2ccc(F)cc2)cc1C(F)(F)F [(R)-XXIII-5] , thanks.
16.2 µM

###

tested on: LNCaP cells; assay: SRB in vitro chemosensitivity assay, LNCaP; format: cell-based; conditions: LNCaP, 144 h, up to 20 μM
readout kind: cytotoxic effect (cytostatic / cytocidal), in words

N#Cc1ccc(NC(=O)[C@](O)(Cc2cccc3ccccc23)CS(=O)(=O)c2ccc(F)cc2)cc1C(F)(F)F [(R)-XXIII-10]
cell killing activity
N#Cc1ccc(NC(=O)[C@](O)(Cc2cc(F)cc(F)c2)CS(=O)(=O)c2ccc(F)cc2)cc1C(F)(F)F [(R)-XXIII-9]
cell killing activity

###

test system: human hepatoblastoma cell line HepG2; test: Cytotoxic activity on HepG2 (hepato-toxicity); format: cell-based; details: HepG2, up to highest concentration tested
readout kind: hepato-toxicity, in words

N#Cc1ccc(NC(=O)[C@](O)(Cc2ccc(F)cc2)CS(=O)(=O)c2ccc(F)cc2)cc1C(F)(F)F [(R)-XXIII-4]
did not display toxicity
N#Cc1ccc(NC(=O)[C@](O)(Cc2ccccc2)CS(=O)(=O)c2ccc(F)cc2)cc1C(F)(F)F [(R)-XXIII-3]
did not display toxicity
N#Cc1ccc(NC(=O)[C@@](O)(CS(=O)(=O)c2ccc(F)cc2)c2ccccc2)cc1C(F)(F)F [(R)-XXIII-8]
did not display toxicity
N#Cc1ccc(OCC(O)(Cc2ccccc2)C(=O)Nc2ccc(C#N)c(C(F)(F)F)c2)cc1 (stereo in doubt) [(R)-XXIV-9]
did not display toxicity

###

system: LNCaP-AR cells; experiment: SRB in vitro chemosensitivity assay, LNCaP-AR; format: cell-based; conditions: Homo sapiens, LNCaP/AR, 144 h
I'd appreciate it if you marked entries Y when GI50 is lower than 8 µM and N when it is not.

The following molecules have reported results that may help.
N#Cc1ccc(NC(=O)[C@](O)(Cc2ccccc2)CS(=O)(=O)c2ccc(F)cc2)cc1C(F)(F)F [(R)-XXIII-3]
Y
N#Cc1ccc(NC(=O)[C@](O)(Cc2cccc3ccccc23)CS(=O)(=O)c2ccc(F)cc2)cc1C(F)(F)F [(R)-XXIII-10]
N
N#Cc1ccc(NC(=O)[C@@](O)(CS(=O)(=O)c2ccc(F)cc2)c2ccccc2)cc1C(F)(F)F [(R)-XXIII-8]
N
N#Cc1ccc(NC(=O)[C@](O)(Cc2cccs2)CS(=O)(=O)c2ccc(F)cc2)cc1C(F)(F)F [(R)-XXIII-6]
N
N#Cc1ccc(NC(=O)[C@](O)(Cc2ccc(C(F)(F)F)cc2)CS(=O)(=O)c2ccc(F)cc2)cc1C(F)(F)F [(R)-XXIII-5]
Y
N#Cc1ccc(NC(=O)[C@](O)(Cc2ccc(F)cc2)CS(=O)(=O)c2ccc(F)cc2)cc1C(F)(F)F [(R)-XXIII-4]
Y
N#Cc1ccc(C[C@](O)(CS(=O)(=O)c2ccc(F)cc2)C(=O)Nc2ccc(C#N)c(C(F)(F)F)c2)cc1 [(R)-XXIII-7]
Y

Read the next record carefully.
Does N#Cc1ccc(OCC(O)(Cc2ccccc2)C(=O)Nc2ccc(C#N)c(C(F)(F)F)c2)cc1 (stereo in doubt) [(R)-XXIV-9] have GI50 strictly under 8 µM?
Y

###

test system: LNCaP cells; assay: SRB in vitro chemosensitivity assay, LNCaP; assay type: cell-based; details: LNCaP, 144 h, up to 20 μM
readout kind: cytotoxic effect (cytostatic / cytocidal), in words

N#Cc1ccc(NC(=O)[C@](O)(Cc2ccc(C(F)(F)F)cc2)CS(=O)(=O)c2ccc(F)cc2)cc1C(F)(F)F [(R)-XXIII-5]
cell killing activity
N#Cc1ccc(OCC(O)(Cc2ccccc2)C(=O)Nc2ccc(C#N)c(C(F)(F)F)c2)cc1 (stereo in doubt) [(R)-XXIV-9]
cell killing activity

###

test system: LNCaP cells; assay: SRB in vitro chemosensitivity assay, LNCaP; format: cell-based; settings: LNCaP cells, 144 h exposure, up to 20 μM
readout kind: LC50

N#Cc1ccc(NC(=O)[C@@](O)(CS(=O)(=O)c2ccc(F)cc2)c2ccccc2)cc1C(F)(F)F [(R)-XXIII-8]
n.r.
N#Cc1ccc(NC(=O)[C@](O)(Cc2ccccc2)CS(=O)(=O)c2ccc(F)cc2)cc1C(F)(F)F [(R)-XXIII-3]
n.r.
N#Cc1ccc(NC(=O)[C@](O)(Cc2ccc(F)cc2)CS(=O)(=O)c2ccc(F)cc2)cc1C(F)(F)F [(R)-XXIII-4]
n.r.
CC[C@](O)(CS(=O)(=O)c1ccc(F)cc1)C(=O)Nc1ccc(C#N)c(C(F)(F)F)c1 [(R)-XXIII-2]
n.r.

Please examine the following record next.
Requested field: LC50. Item: N#Cc1ccc(NC(=O)[C@](O)(Cc2cccs2)CS(=O)(=O)c2ccc(F)cc2)cc1C(F)(F)F [(R)-XXIII-6]
n.r.
